Hello, the source for this data is the Human Domainome abundance scans (Beltran et al. 2025), in case you need it.

Readings of abundance fitness for the listed variants
B1: FERM and PDZ domain-containing protein 4, residues 75 to 154; numbered along this chain, Q14CM0 (parent)
chain: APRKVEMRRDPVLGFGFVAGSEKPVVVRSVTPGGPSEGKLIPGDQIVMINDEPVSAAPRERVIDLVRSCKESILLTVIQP

Variants of: B1
Experiment: abundance fitness (aPCA) (normalised: wild type 0, dead -1); higher = more abundant; growth selection in yeast, the domain comes from the species named
Conditions: Homo sapiens

{"MUT": "K4L", "abundance fitness": -0.068}
{"MUT": "K70L", "abundance fitness": -0.306}
{"MUT": "G38H", "abundance fitness": -0.045}
{"MUT": "F17M", "abundance fitness": -0.381}
{"MUT": "K23M", "abundance fitness": -0.01}
{"MUT": "D10L", "abundance fitness": -0.369}
{"MUT": "G16F", "abundance fitness": -1.03}
{"MUT": "I46T", "abundance fitness": -0.113}
{"MUT": "V12R", "abundance fitness": -0.023}
{"MUT": "S29Q", "abundance fitness": -0.026}
{"MUT": "I46M", "abundance fitness": -0.293}
{"MUT": "S72Q", "abundance fitness": -0.004}
{"MUT": "E71G", "abundance fitness": -0.041}
{"MUT": "P53N", "abundance fitness": -0.005}
{"MUT": "S36K", "abundance fitness": -1.1}
{"MUT": "E6S", "abundance fitness": -0.016}
{"MUT": "L13W", "abundance fitness": -0.046}
{"MUT": "K39T", "abundance fitness": -0.201}
{"MUT": "E37L", "abundance fitness": -0.235}
{"MUT": "P58M", "abundance fitness": -0.217}
{"MUT": "K39W", "abundance fitness": -0.145}
{"MUT": "F17N", "abundance fitness": -0.923}
